target: HLA-A*24:02; assay: IEDB peptide-MHC binding, purified MHC/competitive/radioactivity; filed as Kd, often an IC50 or EC50 that approximates it; bounds were set here for any values at or beyond the usual limits of such assays; settings: source organism: Lassa virus Josiah
propertyLabel: Kd

Returns the measured Kd for the input sequence. Input: "VFRTSTPRVV"
≥ 70.3 µM

* * *

molecular target: HLA-B*46:01; assay: IEDB peptide-MHC binding, purified MHC/competitive/fluorescence; filed as Kd, often an IC50 or EC50 that approximates it; bounds were set here for any values at or beyond the usual limits of such assays; conditions: source organism: Orthohantavirus puumalaense
propertyLabel: Kd

For the record "IILKALYML" , what value of Kd is listed for HLA-B*46:01?
≥ 20 µM

* * *

Answer each item with its documented Kd.
molecular target: HLA-A*31:01; assay: IEDB peptide-MHC binding, purified MHC/competitive/radioactivity; filed as Kd, often an IC50 or EC50 that approximates it; bounds were set here for any values at or beyond the usual limits of such assays; details: source organism: Dengue virus 4 Philippines/H241/1956
Give bare numbers, in nM.

Worked examples, 2 sequences total:
- inputSequence: "KKKNPRLCTR"
  testedOn: "HLA-A*31:01"
  propertyLabel: "Kd"
  readoutUnit: "nM"
  experimentalValue: 1040
- inputSequence: "LMIVARHER"
  testedOn: "HLA-A*31:01"
  propertyLabel: "Kd"
  readoutUnit: "nM"
  experimentalValue: 5.18

Returns the measured Kd for the input sequence. Input: "YVSAITQAER"
104

* * *

molecular target: HLA-B*53:01; experiment: IEDB peptide-MHC binding, purified MHC/competitive/fluorescence; filed as Kd, often an IC50 or EC50 that approximates it; bounds were set here for any values at or beyond the usual limits of such assays; conditions: source organism: Entamoeba histolytica HM-1:IMSS
pKd: −log10 of the molar value.
propertyLabel: pKd

Returns the measured pKd for the input sequence. Input: "EVRKAIEFV"
≤ 5.30

* * *

target: HLA-A*03:01; test: IEDB peptide-MHC binding, purified MHC/competitive/fluorescence; filed as Kd, often an IC50 or EC50 that approximates it; bounds were set here for any values at or beyond the usual limits of such assays; conditions: source organism: Influenza A virus (A/Puerto Rico/8/1934(H1N1))
propertyLabel: Kd (nM)
Answers are plain numbers, in nM.

Returns the measured Kd for the input sequence. Input: "CIYRRFKYGLK"
5.6

* * *

target: HLA-A*03:01; assay: IEDB peptide-MHC binding, purified MHC/direct/fluorescence; filed as Kd, often an IC50 or EC50 that approximates it; bounds were set here for any values at or beyond the usual limits of such assays; conditions: source organism: Campylobacter jejuni subsp. jejuni 81116
propertyLabel: Kd

For the record "YTNYPFLFF" , what value of Kd is listed for HLA-A*03:01?
≥ 20 µM

* * *

Answer each item with its documented pKd.
target: HLA-B*45:01; test: IEDB peptide-MHC binding, purified MHC/competitive/radioactivity; filed as Kd, often an IC50 or EC50 that approximates it; bounds were set here for any values at or beyond the usual limits of such assays; settings: source organism: SARS coronavirus Tor2
Numbers only, as −log10 of the molar value.

Worked examples, 2 sequences total:
- inputSequence: "QELGHEDLM"
  testedOn: "HLA-B*45:01"
  pKd: 5.56
- inputSequence: "YENAFLPFT"
  testedOn: "HLA-B*45:01"
  pKd: 7.03

Please give pKd for each item listed below.
1. SEYKGPVTDV
2. REFLTRNPAW
3. DEDDSEPVL
4. AEVVKLPSRY
5. QEAYEQAVA
6. AEGSRGGSQA

7.43
6.24
4.75
5.01
7.83
6.69

Please give pKd for each item listed below.
1. STFVSAARQG
2. AEAAVKPLL
3. YEQVVMDYL

1: 5.70; 2: 6.82; 3: 5.42

src = the Immune Epitope Database (IEDB)
